- experiment-notes: Solubility in water of the embodiment and contrast compounds
measurement-type: solubility (mg/mL)
Output spec: scalar in mg/mL, unitless text.

Check out these entries, answers already filled in.
Please give the documented solubility of CCN(CC)CCC(CC(=O)[O-])C(=O)[O-].NC1CCC(N)CC1.[Pt+2] (centres unmarked)
125

Please give the documented solubility of CCN(CC)CCC(CC(=O)[O-])C(=O)[O-].NCC1CCC1CN.[Pt+2] (racemic)
176

Please give the documented solubility of CCN(CC)CCCC(CC(=O)[O-])C(=O)[O-].NC1CC1N.[Pt+2] (racemic)
195

Please give the documented solubility of CCN(CC)CCC1CC(=O)[O][Pt]2([NH]C(CO)C(CO)[NH]2)[O]C1=O (centres unmarked)
176

Shifting focus to the molecule that follows.
Please give the documented solubility of CN(C)CCC1CC(=O)[O][Pt]2([NH]CC(CO)(CO)C[NH]2)[O]C1=O (centres unmarked)
205
